All figures here come from ChEMBL document CHEMBL3045615.

Record form. Attribute: inhibition at 100 µg/mL. Fill in for each entry.
Tested on: Echinochloa crus-galli
Experiment: Herbicidal activity against Echinochloa crus-galli (barnyard grass) assessed as inhibition of seedling growth at 100 ug/ml at 28 +/- 1 degC measured after 65 hr by cup test
Format: functional
Give bare numbers, in %.

Illustrative cases are given below, each with its answer.
>>> readout_value("COCCOCOc1cccc(/C(O)=C2\\C(=O)CN(C3CC3)C2=O)c1")
33
>>> readout_value("COCCOCOc1ccc(/C(O)=C2\\C(=O)CN(C3CC3)C2=O)cc1")
12
>>> readout_value("Cc1cc(C)cc(/C(O)=C2\\C(=O)CN(C(C)(C)C)C2=O)c1")
40

Each compound below has a recorded value; state its inhibition at 100 µg/mL.
1. O=C1CN(C2CC2)C(=O)/C1=C(\O)c1cccc(Oc2ccccc2)c1
2. CC(C)c1ccc(/C(O)=C2\C(=O)CN(C(C)(C)C)C2=O)cc1
3. CC(C)c1ccc(/C(O)=C2\C(=O)CN(C(C)C)C2=O)cc1
4. CC(C)N1CC(=O)/C(=C(/O)c2cccc(Oc3ccccc3)c2)C1=O
5. COc1ccc(/C(O)=C2\C(=O)CN(C3CC3)C2=O)c(OC)c1

66
18
39
67
79

Each compound below has a recorded value; state its inhibition at 100 µg/mL.
1. COc1ccc(/C(O)=C2\C(=O)CN(C3CC3)C2=O)cc1OC
2. COc1ccccc1/C(O)=C1\C(=O)CN(C(C)C)C1=O
3. COc1cc(OC)c(/C(O)=C2\C(=O)CN(C(C)C)C2=O)cc1OC

65
78
64

###

Record form. Attribute: inhibition at 10 µg/mL. Fill in for each entry.
System: Brassica rapa subsp. oleifera
Assay: Herbicidal activity against Brassica rapa subsp. oleifera assessed as inhibition of root growth at 10 ug/ml at 28 +/- 1 degC measured after 65 hr by root test
Format: functional
Numbers only, in %.

Illustrative cases are given below, each with its answer.
>>> readout_value("COc1ccc(/C(O)=C2\\C(=O)CN(C(C)(C)C)C2=O)cc1OC")
58
>>> readout_value("COCCOCOc1ccc(/C(O)=C2\\C(=O)CN(C(C)C)C2=O)cc1")
19
>>> readout_value("COc1ccc(/C(O)=C2\\C(=O)CN(C(C)C)C2=O)c(OC)c1")
27
>>> readout_value("CC(C)N1CC(=O)/C(=C(/O)c2ccc(C(C)(C)C)cc2)C1=O")
0
>>> readout_value("CC(C)(C)c1ccc(/C(O)=C2\\C(=O)CN(C(C)(C)C)C2=O)cc1")
64

Please turn your attention to the following entry.
Bench note: what inhibition at 10 µg/mL did COc1ccc(/C(O)=C2\C(=O)CN(C3CC3)C2=O)cc1 show?
35

###

System: Echinochloa crus-galli
Assay: Herbicidal activity against Echinochloa crus-galli (barnyard grass) assessed as inhibition of seedling growth at 100 ug/ml at 28 +/- 1 degC measured after 65 hr by cup test
Type: functional
# label = label 1 if inhibition at 100 µg/mL >= 70% else label 0

Consider the following illustrative entries.
>>> class_name("COc1cc(/C(O)=C2\\C(=O)CN(C3CC3)C2=O)cc(OC)c1OC")
"label 0"
>>> class_name("Cc1ccc(/C(O)=C2\\C(=O)CN(C(C)C)C2=O)cc1")
"label 1"
>>> class_name("COc1ccc(/C(O)=C2\\C(=O)CN(C(C)(C)C)C2=O)cc1")
"label 1"
>>> class_name("CCCCCc1ccc(/C(O)=C2\\C(=O)CN(C3CC3)C2=O)cc1")
"label 0"
>>> class_name("COCCOCOc1cccc(/C(O)=C2\\C(=O)CN(C(C)C)C2=O)c1")
"label 1"

Given CC(C)N1CC(=O)/C(=C(/O)c2ccc(C(C)(C)C)cc2)C1=O , state whether its inhibition at 100 µg/mL is at least 70%.
label 0
